- Test system: Streptococcus pneumoniae A28272
- Assay Method Text: MIC, broth micro dilution assay (NCCLS)
- Format: cell-based
- Condition Info: 50% Mueller-Hinton medium and 50% Todd Hewitt medium, 35° C., 18 hours
Assay Readout: MIC (μg/mL) Streptococcus pneumoniae A28272 (µg/mL)
Quick reminder: number only, in µg/mL, skip the unit.

Example entries and their recorded answers appear below.
INSERT INTO results (compound, numeric_result) VALUES
  ('C=C(NC(=O)c1csc(-c2nc3c(cc2OC(=O)C(C)(C)C(=O)OCc2ccccc2)-c2nc(cs2)C(=O)NC(C(C)O)C(=O)NC(=C(C)OC)c2nc(cs2)C(=O)NC2c4nc(cs4)C(=O)NC(COC(=O)c4c5c6c(cccc6n4O)COC(=O)C(OC4CC(C)(O)C(N(C)C)C(C)O4)C2OC5)c2nc-3cs2)n1)C(N)=O (stereo not drawn)', 0.06),
  ('C=C(NC(=O)c1csc(-c2nc3c(cc2O)-c2nc(cs2)C(=O)NC(C(C)O)C(=O)NC(=C(C)OC)c2nc(cs2)C(=O)NC2c4nc(cs4)C(=O)NC(COC(=O)c4c5c6c(cccc6n4OCC4OC6OC(C)(C)OC6C6OC(C)(C)OC46)COC(=O)C(OC4CC(C)(O)C(N(C)C)C(C)O4)C2OC5)c2nc-3cs2)n1)C(N)=O (stereo not drawn)', 0.001);

Continue with the compound presented below.
IN: Indicate its recorded MIC (μg/mL) Streptococcus pneumoniae A28272; the compound in question is C=C(NC(=O)c1csc(-c2nc3c(cc2OC)-c2nc(cs2)C(=O)NC(C(C)O)C(=O)NC(=C(C)OC)c2nc(cs2)C(=O)NC2c4nc(cs4)C(=O)NC(COC(=O)c4c5c6c(cccc6n4OC)COC(=O)C(OC4CC(C)(O)C(N(C)C)C(C)O4)C2OC5)c2nc-3cs2)n1)C(N)=O (stereo not drawn)
OUT: 0.001
